# ASSAY TARGET: T1, IRF4 DBD L70V (Homo sapiens, UniProt Q15306 20-132, L70V)
# T1 sequence: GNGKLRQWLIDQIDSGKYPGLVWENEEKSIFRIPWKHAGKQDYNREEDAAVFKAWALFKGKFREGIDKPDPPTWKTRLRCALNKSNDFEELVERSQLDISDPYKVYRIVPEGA
# ASSAY NOTES: SPR two-state kinetic; FP: PBS + 0.05% Tween20, 5 nM DNA, 1 h, room temperature; SPR: Biacore S200, SA chip, protein 0.1-4500 nM, running buffer not given in material; errors are SD
# CONDITIONS: protein: recombinant; tags: N-terminal His8-linker-His8-TEV, cleaved; label: 3' biotin; hairpin, TTTT loop
PROPERTY LABEL: Kd

Challenge: I have this binder here, CTTGGTTTCACTTCCTGCGTTTTCGCAGGAAGTGAAACCAAG (structured_DNA) [IRE hairpin (biotin)] , and I need its recorded Kd.
Response given: 121 nM
